- Tested on: human CFTR channel
- assay-procedure: Sandell-Kolthoff (SK) assay on the outwardly rectifying CFTR channel, HTB-79 cells
- Assay type: cell-based
- condition-description: one-half of activity with 100 μM Forskolin, read-out: EC50 for Forskolin, activation of CFTR channel
measurement-kind: EC50
Don't forget the unit after the number, please.

// returns EC50 for C=C[C@@]1(C)CC(=O)[C@]2(O)[C@@]3(C)[C@@H](O)CCC(C)(C)[C@@H]3[C@H](O)[C@H](OC(C)=O)[C@@]2(C)O1 [Forskolin] with human CFTR channel; value = 1000 nM
